assay-target: Human immunodeficiency virus type 1 protease (Human immunodeficiency virus 1, UniProt Q72874)
pIC50: −log10 of the molar value.
Each item that follows carries a reported pIC50.
observation-type: pIC50

[[record]]
compound = "NC(=O)[C@@H]1CCCN1P(=O)(O)C(Cc1ccccc1)NC(=O)C(F)(F)F (some centres undefined)"
value = 3.92

[[record]]
compound = "NC(=O)[C@H](Cc1ccccc1)NP(=O)(O)C(Cc1ccccc1)NC(=O)C(F)(F)F (some centres undefined)"
value = 3.98

[[record]]
compound = "COP(=O)(C(Cc1ccccc1)NC(=O)C(F)(F)F)N1CCC[C@H]1C(N)=O (some centres undefined)"
value = 3.99

[[record]]
compound = "COP(=O)(N[C@@H](Cc1ccccc1)C(N)=O)C(Cc1ccccc1)NC(=O)C(F)(F)F (some centres undefined)"
value = 3.74


---

procedure-text: The half-life period was determined
Format: ADME
Each item that follows carries a reported half-life.
observation-type: half-life (h)

[[record]]
compound = "NC(=O)[C@@H]1CCCN1P(=O)(O)C(Cc1ccccc1)NC(=O)C(F)(F)F (some centres not stated)"
observation_type = "half-life"
value = 5

[[record]]
compound = "NC(=O)[C@H](Cc1ccccc1)NP(=O)(O)C(Cc1ccccc1)NC(=O)C(F)(F)F (some centres not stated)"
observation_type = "half-life"
value = 30


---

assay-target: Human immunodeficiency virus type 1 protease (Human immunodeficiency virus 1, UniProt Q72874)
procedure-text: Compound was evaluated for its binding affinity against HIV-1 protease
Each item that follows carries a reported Ki.
observation-type: Ki

[[record]]
compound = "NC(=O)[C@@H]1CCCN1P(=O)(O)C(Cc1ccccc1)NC(=O)C(F)(F)F (some centres undefined)"
value = "52 µM"

[[record]]
compound = "COP(=O)(N[C@@H](Cc1ccccc1)C(N)=O)C(Cc1ccccc1)NC(=O)C(F)(F)F (some centres undefined)"
value = "80 µM"

[[record]]
compound = "COP(=O)(C(Cc1ccccc1)NC(=O)C(F)(F)F)N1CCC[C@H]1C(N)=O (some centres undefined)"
value = "44 µM"

[[record]]
compound = "NC(=O)[C@H](Cc1ccccc1)NP(=O)(O)C(Cc1ccccc1)NC(=O)C(F)(F)F (some centres undefined)"
value = "45 µM"

